System: Fibroblast
Assay: Multiplex assay against human fibroblast
Format: toxicity, cell-based
Conditions: 12 h, 1 µM, compound concentration 1 uM, replicate 1
Hi there, I'd appreciate the recorded Population Mitochondria Different-Phenotype (%) for every entry that follows.
Answers are plain numbers, in %.

1) O=C(NCCNCC(O)COc1ccc(O)cc1)N1CCOCC1.O=C(NCCNCC(O)COc1ccc(O)cc1)N1CCOCC1.O=C(O)/C=C/C(=O)O (centres undefined) [XAMOTEROL FUMARATE]: 4

Each compound below has a recorded value; state its Population Mitochondria Different-Phenotype (%).
1. COc1cc(OC2CCN(C(C)=O)CC2)ccc1C(=O)N1CCC(N2C(=O)OCc3ccccc32)CC1
2. COCCCN1CCC(NC(=O)c2cc(Cl)c(N)c3c2OCC3)CC1 [PRUCALOPRIDE]
3. CSc1nc(NC2CCCC2)c([N+](=O)[O-])c(NC2CCCC2)n1

1: 5; 2: 3; 3: 6

Reference for the values: ChEMBL document CHEMBL5058577
